- system name: Voltage-gated inwardly rectifying potassium channel KCNH2 (Homo sapiens, UniProt Q12809)
- Sequence (Q12809 whole entry): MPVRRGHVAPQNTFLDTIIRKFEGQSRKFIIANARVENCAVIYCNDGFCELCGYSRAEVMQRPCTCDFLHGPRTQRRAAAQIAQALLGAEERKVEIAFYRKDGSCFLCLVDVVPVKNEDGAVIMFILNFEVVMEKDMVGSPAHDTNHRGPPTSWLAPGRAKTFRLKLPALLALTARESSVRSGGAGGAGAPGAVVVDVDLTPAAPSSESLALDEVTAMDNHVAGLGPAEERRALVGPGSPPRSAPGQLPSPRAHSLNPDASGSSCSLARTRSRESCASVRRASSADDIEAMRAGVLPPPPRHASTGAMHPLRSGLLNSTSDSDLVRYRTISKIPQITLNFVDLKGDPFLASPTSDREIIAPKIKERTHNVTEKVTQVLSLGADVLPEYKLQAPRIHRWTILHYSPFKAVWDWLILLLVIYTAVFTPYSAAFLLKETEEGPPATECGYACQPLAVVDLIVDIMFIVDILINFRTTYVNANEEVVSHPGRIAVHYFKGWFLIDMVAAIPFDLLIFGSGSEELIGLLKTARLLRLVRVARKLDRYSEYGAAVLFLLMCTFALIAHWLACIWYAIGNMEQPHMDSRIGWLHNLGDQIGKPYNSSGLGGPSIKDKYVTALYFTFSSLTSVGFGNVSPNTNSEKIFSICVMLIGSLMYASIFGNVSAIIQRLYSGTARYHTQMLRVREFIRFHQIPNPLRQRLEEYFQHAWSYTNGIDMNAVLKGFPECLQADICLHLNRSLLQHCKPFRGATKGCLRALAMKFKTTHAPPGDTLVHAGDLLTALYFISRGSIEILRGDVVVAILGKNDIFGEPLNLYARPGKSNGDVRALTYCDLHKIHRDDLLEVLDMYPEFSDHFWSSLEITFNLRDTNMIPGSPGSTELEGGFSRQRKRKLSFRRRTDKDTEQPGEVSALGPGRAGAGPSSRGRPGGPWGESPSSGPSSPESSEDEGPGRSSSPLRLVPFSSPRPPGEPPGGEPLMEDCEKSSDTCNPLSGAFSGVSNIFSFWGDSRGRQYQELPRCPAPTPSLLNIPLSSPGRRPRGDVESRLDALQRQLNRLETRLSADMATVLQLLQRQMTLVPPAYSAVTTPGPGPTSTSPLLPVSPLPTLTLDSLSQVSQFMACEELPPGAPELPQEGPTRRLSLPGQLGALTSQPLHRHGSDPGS
# key: entry, value: IC50

{"smiles data": "OC(c1ccccc1)(c1ccccc1)C1CCN(CCCOc2ccc(-c3ccccc3)cc2)CC1", "unit label": "µM", "IC50": 0.14}
{"smiles data": "OC(c1ccccc1)(c1ccccc1)C1CCN(Cc2ccc(-c3ccccc3)cc2)CC1", "unit label": "µM", "IC50": 0.21}

* * *

# key: entry, value: IC50
- system name: DNA gyrase (Staphylococcus aureus, UniProt P0A0K8+P20831)
- Sequence (P0A0K8 whole entry): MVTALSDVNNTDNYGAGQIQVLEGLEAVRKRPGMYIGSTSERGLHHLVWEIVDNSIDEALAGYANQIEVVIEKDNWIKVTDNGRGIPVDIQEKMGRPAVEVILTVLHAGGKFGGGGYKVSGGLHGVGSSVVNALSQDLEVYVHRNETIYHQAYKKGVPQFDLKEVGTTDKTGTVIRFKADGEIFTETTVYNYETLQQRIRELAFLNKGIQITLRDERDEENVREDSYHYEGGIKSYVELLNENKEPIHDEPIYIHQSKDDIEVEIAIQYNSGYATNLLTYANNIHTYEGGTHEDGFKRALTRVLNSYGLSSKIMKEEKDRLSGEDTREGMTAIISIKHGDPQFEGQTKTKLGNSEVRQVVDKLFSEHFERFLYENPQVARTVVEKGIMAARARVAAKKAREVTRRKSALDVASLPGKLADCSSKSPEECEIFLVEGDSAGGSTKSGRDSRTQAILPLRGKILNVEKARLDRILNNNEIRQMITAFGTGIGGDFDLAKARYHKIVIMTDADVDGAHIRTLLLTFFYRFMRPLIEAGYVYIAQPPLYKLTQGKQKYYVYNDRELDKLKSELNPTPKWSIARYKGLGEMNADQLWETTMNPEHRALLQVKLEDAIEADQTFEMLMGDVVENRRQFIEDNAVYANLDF
- Sequence (P20831 whole entry): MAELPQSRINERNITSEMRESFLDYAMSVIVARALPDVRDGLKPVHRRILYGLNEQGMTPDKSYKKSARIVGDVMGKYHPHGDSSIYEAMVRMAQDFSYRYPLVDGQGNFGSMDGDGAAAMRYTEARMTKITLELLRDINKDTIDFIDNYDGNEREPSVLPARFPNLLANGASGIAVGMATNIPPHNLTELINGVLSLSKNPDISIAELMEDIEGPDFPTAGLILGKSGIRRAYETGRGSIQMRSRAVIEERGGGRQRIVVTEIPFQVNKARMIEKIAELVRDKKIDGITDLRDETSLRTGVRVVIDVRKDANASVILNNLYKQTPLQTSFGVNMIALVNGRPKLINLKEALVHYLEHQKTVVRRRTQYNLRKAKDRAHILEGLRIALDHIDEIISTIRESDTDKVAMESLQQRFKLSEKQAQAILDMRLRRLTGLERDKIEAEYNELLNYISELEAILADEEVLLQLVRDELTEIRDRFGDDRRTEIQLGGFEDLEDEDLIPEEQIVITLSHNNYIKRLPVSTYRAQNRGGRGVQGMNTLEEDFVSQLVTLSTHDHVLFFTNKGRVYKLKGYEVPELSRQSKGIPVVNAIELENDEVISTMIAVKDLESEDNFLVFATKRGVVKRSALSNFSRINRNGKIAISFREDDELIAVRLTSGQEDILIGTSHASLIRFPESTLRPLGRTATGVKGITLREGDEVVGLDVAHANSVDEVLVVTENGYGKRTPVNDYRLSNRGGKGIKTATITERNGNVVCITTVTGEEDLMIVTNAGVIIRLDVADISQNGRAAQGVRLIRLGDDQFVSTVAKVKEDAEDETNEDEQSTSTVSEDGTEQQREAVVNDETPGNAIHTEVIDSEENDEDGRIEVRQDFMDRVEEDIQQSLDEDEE
- assay procedure: Inhibition of Staphylococcus aureus DNA gyrase assessed as reduction in enzyme-catalyzed supercoiling of relaxed circular pBR322 DNA by agarose gel electrophoresis
measurement name: IC50 (µM)

{"compound": "CC(C)(C)c1ccc(CCN2CCC(C(O)(c3ccccc3)c3ccccc3)CC2)cc1", "system name": "DNA gyrase (Staphylococcus aureus, UniProt P0A0K8+P20831)", "unit label": "µM", "sign qualifier": "=", "endpoint result": 93}
{"compound": "COc1ccc(CCN2CCC(C(O)(c3ccccc3)c3ccccc3)CC2)cc1", "system name": "DNA gyrase (Staphylococcus aureus, UniProt P0A0K8+P20831)", "unit label": "µM", "sign qualifier": ">", "endpoint result": 333}
{"compound": "CC(C)(C)c1ccc(OCCCN2CCC(C(O)(c3ccccc3)c3ccccc3)CC2)cc1", "system name": "DNA gyrase (Staphylococcus aureus, UniProt P0A0K8+P20831)", "unit label": "µM", "sign qualifier": "=", "endpoint result": 100}
{"compound": "CC(C)(C)c1ccc(CCCCN2CCC(C(O)(c3ccccc3)c3ccccc3)CC2)cc1", "system name": "DNA gyrase (Staphylococcus aureus, UniProt P0A0K8+P20831)", "unit label": "µM", "sign qualifier": "=", "endpoint result": 93}
{"compound": "COc1ccc(C(O)CCCN2CCC(C(O)(c3ccccc3)c3ccccc3)CC2)cc1 (configuration not stated)", "system name": "DNA gyrase (Staphylococcus aureus, UniProt P0A0K8+P20831)", "unit label": "µM", "sign qualifier": ">", "endpoint result": 500}
{"compound": "OC(CCCN1CCC(C(O)(c2ccccc2)c2ccccc2)CC1)c1ccc(-c2ccccc2)cc1 (configuration not stated)", "system name": "DNA gyrase (Staphylococcus aureus, UniProt P0A0K8+P20831)", "unit label": "µM", "sign qualifier": "=", "endpoint result": 13}
{"compound": "CC(C)(C)c1ccc(CCN2CCC(C(O)(c3ccccc3)c3ccccc3)CC2)cn1", "system name": "DNA gyrase (Staphylococcus aureus, UniProt P0A0K8+P20831)", "unit label": "µM", "sign qualifier": ">", "endpoint result": 333}
{"compound": "CC(C)(C)c1ccc(CN2CCC(C(O)(c3ccccc3)c3ccccc3)CC2)cc1", "system name": "DNA gyrase (Staphylococcus aureus, UniProt P0A0K8+P20831)", "unit label": "µM", "sign qualifier": "=", "endpoint result": 90}
{"compound": "OC(c1ccccc1)(c1ccccc1)C1CCN(CCc2ccc(C(F)(F)F)cc2)CC1", "system name": "DNA gyrase (Staphylococcus aureus, UniProt P0A0K8+P20831)", "unit label": "µM", "sign qualifier": "=", "endpoint result": 17}
{"compound": "OC(c1ccccc1)(c1ccccc1)C1CCN(CCc2ccc(-c3cccnc3)cc2)CC1", "system name": "DNA gyrase (Staphylococcus aureus, UniProt P0A0K8+P20831)", "unit label": "µM", "sign qualifier": "=", "endpoint result": 250}
{"compound": "COC(=O)C(C)(C)c1ccc(C(O)CCCN2CCC(C(O)(c3ccccc3)c3ccccc3)CC2)cc1 (configuration not stated)", "system name": "DNA gyrase (Staphylococcus aureus, UniProt P0A0K8+P20831)", "unit label": "µM", "sign qualifier": ">", "endpoint result": 500}
{"compound": "OC(CCCN1CCC(C(O)(c2ccccc2)c2ccccc2)CC1)c1ccc(Cl)cc1 (configuration not stated)", "system name": "DNA gyrase (Staphylococcus aureus, UniProt P0A0K8+P20831)", "unit label": "µM", "sign qualifier": "=", "endpoint result": 133}
{"compound": "CC(C)(C)c1cccc(CCN2CCC(C(O)(c3ccccc3)c3ccccc3)CC2)c1", "system name": "DNA gyrase (Staphylococcus aureus, UniProt P0A0K8+P20831)", "unit label": "µM", "sign qualifier": "=", "endpoint result": 93}
{"compound": "CC(C)(C)c1ccc(C(O)CCCN2CCC(Cc3ccccc3)CC2)cc1 (configuration not stated)", "system name": "DNA gyrase (Staphylococcus aureus, UniProt P0A0K8+P20831)", "unit label": "µM", "sign qualifier": ">", "endpoint result": 333}
{"compound": "OC(c1ccccc1)(c1ccccc1)C1CCN(CCc2ccc(Cl)cc2)CC1", "system name": "DNA gyrase (Staphylococcus aureus, UniProt P0A0K8+P20831)", "unit label": "µM", "sign qualifier": "=", "endpoint result": 260}
{"compound": "OC(CCCN1CCC(C(O)(c2ccccc2)c2ccccc2)CC1)c1ccc(F)cc1 (configuration not stated)", "system name": "DNA gyrase (Staphylococcus aureus, UniProt P0A0K8+P20831)", "unit label": "µM", "sign qualifier": ">", "endpoint result": 500}
{"compound": "CC1(c2ccc(CCN3CCC(C(O)(c4ccccc4)c4ccccc4)CC3)cc2)COC1", "system name": "DNA gyrase (Staphylococcus aureus, UniProt P0A0K8+P20831)", "unit label": "µM", "sign qualifier": ">", "endpoint result": 333}
{"compound": "CC(C)(C)c1ccc(CCCN2CCC(C(O)(c3ccccc3)c3ccccc3)CC2)cc1", "system name": "DNA gyrase (Staphylococcus aureus, UniProt P0A0K8+P20831)", "unit label": "µM", "sign qualifier": "=", "endpoint result": 93}
{"compound": "OC(c1ccccc1)(c1ccccc1)C1CCN(CCc2ccc(Br)cc2)CC1", "system name": "DNA gyrase (Staphylococcus aureus, UniProt P0A0K8+P20831)", "unit label": "µM", "sign qualifier": "=", "endpoint result": 247}
{"compound": "CC(C)(C(=O)O)c1ccc(C(O)CCCN2CCC(C(O)(c3ccccc3)c3ccccc3)CC2)cc1 (configuration not stated) [FEXOFENADINE]", "system name": "DNA gyrase (Staphylococcus aureus, UniProt P0A0K8+P20831)", "unit label": "µM", "sign qualifier": ">", "endpoint result": 500}
{"compound": "O=C(O)c1ccc(C(O)CCCN2CCC(C(O)(c3ccccc3)c3ccccc3)CC2)cc1 (configuration not stated)", "system name": "DNA gyrase (Staphylococcus aureus, UniProt P0A0K8+P20831)", "unit label": "µM", "sign qualifier": ">", "endpoint result": 500}
{"compound": "CC(C)(C)c1ccc(C(O)CCCCN2CCC(C(O)(c3ccccc3)c3ccccc3)CC2)cc1 (configuration not stated)", "system name": "DNA gyrase (Staphylococcus aureus, UniProt P0A0K8+P20831)", "unit label": "µM", "sign qualifier": "=", "endpoint result": 100}
{"compound": "OC(c1ccccc1)(c1ccccc1)C1CCN(Cc2ccc(-c3ccccc3)cc2)CC1", "system name": "DNA gyrase (Staphylococcus aureus, UniProt P0A0K8+P20831)", "unit label": "µM", "sign qualifier": "=", "endpoint result": 125}
{"compound": "OC(CCCN1CCC(C(O)(c2ccccc2)c2ccccc2)CC1)c1ccc(Br)cc1 (configuration not stated)", "system name": "DNA gyrase (Staphylococcus aureus, UniProt P0A0K8+P20831)", "unit label": "µM", "sign qualifier": ">", "endpoint result": 500}
{"compound": "OC(c1ccccc1)(c1ccccc1)C1CCN(CCc2ccc(F)cc2)CC1", "system name": "DNA gyrase (Staphylococcus aureus, UniProt P0A0K8+P20831)", "unit label": "µM", "sign qualifier": ">", "endpoint result": 333}
{"compound": "O=[N+]([O-])c1ccc(CCN2CCC(C(O)(c3ccccc3)c3ccccc3)CC2)cc1", "system name": "DNA gyrase (Staphylococcus aureus, UniProt P0A0K8+P20831)", "unit label": "µM", "sign qualifier": "=", "endpoint result": 263}
{"compound": "OC(c1ccccc1)(c1ccccc1)C1CCN(CCc2ccc(-c3ccncc3)cc2)CC1", "system name": "DNA gyrase (Staphylococcus aureus, UniProt P0A0K8+P20831)", "unit label": "µM", "sign qualifier": "=", "endpoint result": 93}
{"compound": "CN(C)c1ccc(CCN2CCC(C(O)(c3ccccc3)c3ccccc3)CC2)cc1", "system name": "DNA gyrase (Staphylococcus aureus, UniProt P0A0K8+P20831)", "unit label": "µM", "sign qualifier": ">", "endpoint result": 333}
{"compound": "CC(C)(C)c1ccc(C(=O)N2CCC(C(O)(c3ccccc3)c3ccccc3)CC2)cc1", "system name": "DNA gyrase (Staphylococcus aureus, UniProt P0A0K8+P20831)", "unit label": "µM", "sign qualifier": "=", "endpoint result": 93}
{"compound": "CC(C)(C)c1ccc(C(=O)CCN2CCC(C(O)(c3ccccc3)c3ccccc3)CC2)cc1", "system name": "DNA gyrase (Staphylococcus aureus, UniProt P0A0K8+P20831)", "unit label": "µM", "sign qualifier": "=", "endpoint result": 90}
{"compound": "Nc1ccc(CCN2CCC(C(O)(c3ccccc3)c3ccccc3)CC2)cc1", "system name": "DNA gyrase (Staphylococcus aureus, UniProt P0A0K8+P20831)", "unit label": "µM", "sign qualifier": "=", "endpoint result": 93}
{"compound": "CC(C)(C)c1ccc(C(O)CCCN2CCC(C(O)c3ccccc3)CC2)cc1 (configuration not stated)", "system name": "DNA gyrase (Staphylococcus aureus, UniProt P0A0K8+P20831)", "unit label": "µM", "sign qualifier": ">", "endpoint result": 333}
{"compound": "Cc1ccc(C(O)CCCN2CCC(C(O)(c3ccccc3)c3ccccc3)CC2)cc1 (configuration not stated)", "system name": "DNA gyrase (Staphylococcus aureus, UniProt P0A0K8+P20831)", "unit label": "µM", "sign qualifier": ">", "endpoint result": 500}
{"compound": "OC(c1ccccc1)(c1ccccc1)C1CCN(CCCOc2ccc(-c3ccccc3)cc2)CC1", "system name": "DNA gyrase (Staphylococcus aureus, UniProt P0A0K8+P20831)", "unit label": "µM", "sign qualifier": "=", "endpoint result": 50}
{"compound": "CC(C)(C)c1ccc(C(O)CCN2CCC(C(O)(c3ccccc3)c3ccccc3)CC2)cc1 (configuration not stated)", "system name": "DNA gyrase (Staphylococcus aureus, UniProt P0A0K8+P20831)", "unit label": "µM", "sign qualifier": "=", "endpoint result": 133}
{"compound": "OC(CCCN1CCC(C(O)(c2ccccc2)c2ccccc2)CC1)c1ccccc1 (configuration not stated)", "system name": "DNA gyrase (Staphylococcus aureus, UniProt P0A0K8+P20831)", "unit label": "µM", "sign qualifier": ">", "endpoint result": 500}
{"compound": "OC(c1ccccc1)(c1ccccc1)C1CCN(CCc2ccc(-c3ccccc3)cc2)CC1", "system name": "DNA gyrase (Staphylococcus aureus, UniProt P0A0K8+P20831)", "unit label": "µM", "sign qualifier": "=", "endpoint result": 80}
